# credit: PubChem BioAssay (NCI)

- Tested on: NCI-H23 lung
- ASSAY NOTES: NCI tumour cell line growth inhibition, 48 h
PROPERTY: TGI

CCCCc1ccc2[n+](c1)C(C(=O)OCC)=PC2 (stereo not drawn) | > 100 µM
COc1ccc(N2C(=O)C3c4[nH]c5ccc(C)cc5c4C4CCC(C(C)C)CC4C3C2=O)cc1 (stereo not drawn) | > 100 µM
c1ccc2c3c(ccc2c1)CSCc1ccc2ccccc2c1-3 | > 100 µM

Task: Give reported TGI value for O=C(Cn1c2ccc(Br)cc2c2nc3ccccc3nc21)NC1CCCCC1
Result: > 100 µM

Task: Dear colleague, please send me the reported TGI for COc1ccc(C[C@H]2C[C@@H](O)[C@@H](C)C/C=C/Cc3cccc(O)c3C(=O)O2)cn1 when you can.
Result: 56.8 µM

Task: Give TGI for COc1ccccc1C(=O)c1c(N2CCCCC2)c(=O)c1=O
Result: > 100 µM

Task: Please give the documented TGI of CCCCn1cc(C(=O)O)c(=O)c2c3sccc3ccc21
Result: > 100 µM

Task: Please look at this compound and report its TGI: Cc1[nH]c(=O)nc(N/N=C/c2ccc(Cl)c(Cl)c2)c1C(=O)Nc1ccc(Cl)c(Cl)c1
Result: > 44.9 µM

Task: Indicate its recorded TGI; the compound in question is C/C(=C(/c1ccc(O)cc1)c1ccc(OCCN2CCCC2)cc1)c1ccccc1
Result: 18.2 µM

Task: Annotate the compound CN(C)CCCn1c2ccccc2c2cnccc21 with its measured TGI.
Result: > 100 µM

Task: Input CCOC(=O)c1cc(-c2ccc(OC)c(OC)c2)c[nH]1 , output reported TGI.
Result: > 10 µM

Task: Output measured TGI for this item: O=C(Oc1c(I)ccccc1=O)c1ccc([N+](=O)[O-])cc1
Result: 99.6 µM

Task: Specify measured TGI for Cc1ccc2ccccc2c1CC1S(=O)(=O)OCCOS1(=O)=O .
Result: 41 µM

====

Below, each entry is listed with its recorded TGI.
- System: CCRF-CEM leukemia
- ASSAY NOTES: NCI tumour cell line growth inhibition, 48 h

O=C1C=C(Nc2cccc(Br)c2)c2ccccc2C1=O | 82.9 µM

Task: Give the reported value of TGI for this record: CC1=NNC(N)=N/C1=C/C(Sc1ccc(Cl)cc1)c1cccs1 (stereo unspecified)
Result: 9.79 µM

Task: Provide TGI value for the following molecule: O=C(CCCCCCCCC(=O)OCC1OC(n2cnc3c(=O)[nH]cnc32)C(O)C1O)OCC1OC(n2cnc3c(=O)[nH]cnc32)C(O)C1O (stereo unspecified)
Result: > 100 µM

Task: Give TGI for Cc1c(C(C)C)cc(OCCO)cc1C(C)C
Result: > 100 µM

Task: Supply TGI value. Item: c1ccc2c3c(ccc2c1)CSCc1ccc2ccccc2c1-3
Result: > 100 µM

Task: Indicate its recorded TGI; the molecule in question is CCOC(=O)c1cnc2[nH]c(=O)c3ccccc3n2c1=O
Result: > 100 µM

Task: Assign TGI to the following record: COc1ccc([Se]c2ccc(OC)cc2OC)c(OC)c1
Result: > 100 µM

Task: Please give measured TGI of the following entry: CC1(C)N=C(N)N=C(N)N1c1ccc(OCC(=O)Nc2cccc(S(=O)(=O)F)c2)c(Cl)c1
Result: > 100 µM

Task: Look up and state reported TGI for O=C1c2ccccc2NC2C(O)c3ccccc3N12 (stereo unspecified)
Result: 54.6 µM

Task: Retrieve TGI measured for CC1=CC2=C(C)C3(CC3)[C@@](C)(O)C(=O)C2=C1 and print it.
Result: > 1 µM

Task: Give the measured TGI for COc1cc(N=Nc2cccc(S(=O)(=O)O)c2)c(C)cc1N=Nc1ccc(/C=C/c2ccc(N=[N+]([O-])c3ccc(/C=C/c4ccc(N=Nc5cc(C)c(N=Nc6cccc(S(=O)(=O)O)c6)cc5OC)cc4)c(S(=O)(=O)O)c3)cc2S(=O)(=O)O)cc1
Result: > 100 µM

====

- Test system: DMS 273 small cell lung
- ASSAY NOTES: NCI tumour cell line growth inhibition, 48 h
PROPERTY: TGI

Example molecules with recorded TGI:
CCOC(=O)c1cnc2[nH]c(=O)c3ccccc3n2c1=O | > 100 µM
CCOC(=O)CCC1(C(=O)OC)CCCC1=O (stereo not given) | > 100 µM

Task: Quickly give me recorded TGI for CC1CCC(O)C(C(O)CC2CC(=O)N(C)C(=O)C2)C1 (stereo not given)
Result: > 100 µM

Task: Look up and report measured TGI for this entry: Cc1nc2c(n1Cc1ccc(Cl)cc1)C(=O)c1ccccc1C2=O
Result: > 75 µM

Task: State its TGI: Cc1cc(N(CCC#N)S(=O)(=O)c2ccccc2)ccc1C=O
Result: > 100 µM

====

- Tested on: NCI-H23 lung
- ASSAY NOTES: NCI tumour cell line growth inhibition, 48 h
PROPERTY: TGI

Task: Please supply the value of reported TGI for the item c1ccc(SCCCC(Sc2ccccc2)Sc2ccccc2)cc1
Result: > 100 µM

Task: Return TGI for the following molecule: C=C[C@]1(C)CC[C@]2(C)C(CC[C@@]3(C)C2C[C@H](O)[C@H](O)[C@@]3(C)O)C1 (some centres undefined)
Result: > 100 µM

Task: Using known records, supply TGI for O=C1c2ccccc2NC2C(O)c3ccccc3N12 (centres undefined)
Result: 84.3 µM

Task: Give TGI for the following molecule: N#Cc1c(N)c(-c2ccc(Cl)cc2)c(F)c2ccccc12
Result: > 100 µM

====

- System: MOLT-4 leukemia
- ASSAY NOTES: NCI tumour cell line growth inhibition, 48 h
PROPERTY: TGI

CC(=O)[CH-]C(=O)c1ccccc1.CC(=O)[CH-]C(=O)c1ccccc1.[O]=[U+2]=[O] | > 100 µM
O=C(CCCCCCCCC(=O)OCC1OC(n2cnc3c(=O)[nH]cnc32)C(O)C1O)OCC1OC(n2cnc3c(=O)[nH]cnc32)C(O)C1O (stereo not drawn) | > 100 µM

Task: State, in one line, measured TGI of S=C(Nc1ccccc1)Nc1[nH]c(=S)sc1-c1nc2ccccc2[nH]1
Result: > 100 µM

====

- System: OVCAR-5 ovarian
- ASSAY NOTES: NCI tumour cell line growth inhibition, 48 h
PROPERTY: TGI

Here's what some known entries look like.
Cc1[nH]c(=O)nc(N/N=C/c2ccc(Cl)c(Cl)c2)c1C(=O)Nc1ccc(Cl)c(Cl)c1 | > 46.3 µM
O=C1CCC2(CC1)Cc1ccccc1C2O (stereo unspecified) | > 100 µM
Cc1nnc2n1N=C(CC(=O)c1ccc(O)cc1O)CN2N | > 100 µM
Oc1c2cccc1Cc1cccc3c1OCCOCCOCCOCCOc1c(cccc1Cc1cccc(c1O)C3)C2 | > 100 µM
NC(Cc1nn[nH]n1)C(=O)O (stereo unspecified) | > 100 µM

# input for lookup
Task: Determine its reported TGI: CC1OC(=O)N(CCCC=C2SCCCS2)C1=O (stereo unspecified)
Result: > 100 µM

====

- System: SK-MEL-28 melanoma
- ASSAY NOTES: NCI tumour cell line growth inhibition, 48 h
PROPERTY: TGI

Task: Quickly give me recorded TGI for Clc1ccc2c(Cl)ncnc2c1
Result: > 100 µM

Task: Give the measured TGI for COC(=O)c1c(C)oc2ccc(OC(C)=O)cc12
Result: > 100 µM

Task: Tell me its TGI given NC(Cc1nn[nH]n1)C(=O)O (stereo unspecified) as the entry.
Result: > 100 µM

Task: State, in one line, measured TGI of COc1ccc(CNc2nc(NCc3ccc(OC)cc3)nc(NC3CCCCC3)n2)cc1
Result: > 100 µM

Task: Give TGI for CCCCCCCCCCCCCCCCOCC(CC(F)(F)P(=O)(O)O)OC(C)=O (stereo unspecified)
Result: > 50 µM

Task: Give a short answer stating reported TGI for CC(=O)N(C(C)=O)n1c(Cc2ccc(Cl)cc2)nn(C(C)=O)c1=O .
Result: > 100 µM

Task: Using known records, supply TGI for CC(=O)NC1C(OCc2ccccc2)OC(COC(=O)CCCCCCCCCCNC(=O)c2cccc3c(=O)c4ccccc4[nH]c23)C(O)C1OC(C)C(=O)NC(C)C(=O)NC(CCC(N)=O)C(N)=O (stereo unspecified)
Result: > 100 µM

Task: Return value of TGI for input CC1(C)N=C(N)N=C(N)N1c1ccc(OCC(=O)Nc2cccc(S(=O)(=O)F)c2)c(Cl)c1 , no commentary.
Result: > 100 µM

====

The following compounds are listed with their measured TGI values.
- System: DMS 114 small cell lung
- ASSAY NOTES: NCI tumour cell line growth inhibition, 48 h

Illustrative cases are given below, each with its answer.
COC(=O)c1c(C)oc2ccc(OC(C)=O)cc12 | > 100 µM
CCC1OCCN1C(C)C (centres undefined) | > 100 µM
Brc1ccc2c(c1)C1(c3cc(Br)ccc3-2)c2cc(Br)ccc2-c2ccc(Br)cc21 | > 100 µM
c1ccc2c(c1)CCCc1cc3ccccc3nc1-2 | 75.1 µM
CC(=O)O[C@]12CCCCCCC1C1(O)C(O)CCC[C@H]12 (some centres undefined) | > 100 µM

Task: Output TGI of Cc1cc(CS(=O)(=O)/C=C/c2ccccc2[N+](=O)[O-])c(CS(=O)(=O)/C=C/c2ccccc2[N+](=O)[O-])cc1C
Result: > 100 µM

Task: Dear colleague, please send me the reported TGI for c1ccc(C2=NN3CN(N2)c2ccccc2OCCCOc2ccccc23)cc1 when you can.
Result: > 100 µM

Task: Please report TGI for the following compound: C=C1C(=O)O[C@H]2C1[C@H](OC(=O)/C(C)=C\COC(C)=O)C[C@]1(CO1)[C@@H]1[C@H](O)[C@H]3O[C@@]3(C)[C@@H]12 (some centres undefined)
Result: 42.6 µM
